# protocol-description: Toxicity in mouse
# Type: organism-based
# particulars: in vivo
reported-endpoint: MTD

| mol-smiles | reported-endpoint | value-measured |
| --- | --- | --- |
| COC(=O)[C@]12CCC(C)(C)C[C@H]1C1=CC[C@@H]3[C@@]4(C)CC/C(=N\OC(=O)/C=C5/SC(=O)NC5=O)C(C)(C)[C@@H]4CC[C@@]3(C)[C@]1(C)CC2 | MTD | > 400 mg/kg |

----------
# Tested on: T47D
# protocol-description: Cytotoxicity against Homo sapiens (human) T47D cells assessed as cellular growth at 10^-5 M after 48 hr by SRB assay relative to untreated control
# Assay type: functional
Overview of recorded Activity for various compounds

| compound | Activity, % |
| --- | --- |
| COC(=O)[C@]12CCC(C)(C)C[C@H]1C1=CC[C@@H]3[C@@]4(C)CC/C(=N\OC(=O)CCCCCN5C(=O)CSC5=S)C(C)(C)[C@@H]4CC[C@@]3(C)[C@]1(C)CC2 | 76.91 |
| COC(=O)[C@]12CCC(C)(C)C[C@H]1C1=CC[C@@H]3[C@@]4(C)CCC(=O)C(C)(C)[C@@H]4CC[C@@]3(C)[C@]1(C)CC2 | 75.65 |
| CC1(C)CC[C@]2(C(=O)N3CCOCC3)CC[C@]3(C)C(=CC[C@@H]4[C@@]5(C)CC/C(=N\OC(=O)CC6SC(=O)NC6=O)C(C)(C)[C@@H]5CC[C@]43C)[C@@H]2C1 (stereo not given in full) | 29.41 |
| CC1(C)CC[C@@]23CC[C@]4(C)[C@@](OC2=O)([C@@H]3C1)[C@@H](Br)C[C@@H]1[C@@]2(C)CC/C(=N\OC(=O)/C=C3/SC(=O)NC3=O)C(C)(C)[C@@H]2CC[C@]14C | 24.85 |
| COC(=O)[C@]12CCC(C)(C)C[C@H]1C1=CC[C@@H]3[C@@]4(C)CC/C(=N\OC(=O)/C=C5/SC(=O)NC5=O)C(C)(C)[C@@H]4CC[C@@]3(C)[C@]1(C)CC2 | 9.18 |
